# Test system: B. anthracis GFP sterne vegetative cells
# methodSummary: microbe, parasite or virus in culture
# Type: cell-based
# assayConditions: Bacillus anthracis, read-out: MIC B. anthracis vegetative cells
assayReadout: MIC

{"compound": "C(=C\\c1cc2cc(C3=NCCN3)ccc2[nH]1)/c1ccc(C2=NCCN2)cc1 [NSC 317885]", "reading": "> 17.1 µg/mL"}
{"compound": "c1cc(-c2cc3ccc(C4=NCCN4)cc3s2)ccc1C1=NCCN1 [NSC 278996]", "reading": "> 16.8 µg/mL"}
{"compound": "N=C(N)c1ccc(-c2cc3cc(C(=N)N)ccc3s2)cc1 [NSC 240891]", "reading": "> 14.7 µg/mL"}
{"compound": "C(=C\\c1cc2cc(C3=NCCN3)ccc2s1)/c1ccc(C2=NCCN2)cc1 [NSC 317883]", "reading": "17.8 µg/mL"}

In the following, a different compound is considered.
QUERY: Look up and report measured MIC for this entry: N=C(N)c1ccc(/C=C/c2cc3cc(C(=N)N)ccc3[nH]2)cc1 [NSC 317884]
RESULT: > 15 µg/mL

---

The reader will find reported MIC values listed item by item below.
# Test system: Burkholderia pseudomallei
# methodSummary: microbe, parasite or virus in culture
# Type: cell-based
Numeric answer only, unit µg/mL assumed.

QUERY: With Burkholderia pseudomallei as the test system, provide measured MIC for this compound: "c1cc2cc(-c3ccc4cc(-c5ccc6oc(C7=NCCN7)cc6c5)[nH]c4c3)[nH]c2cc1C1=NCCN1"
RESULT: 2.79

QUERY: With Burkholderia pseudomallei as the test system, provide measured MIC for this compound: "C(=C\c1cc2ccc(C3=NCCN3)cc2[nH]1)/c1cc2ccc(C3=NCCN3)cc2[nH]1"
RESULT: 18.7

---

# tgt: anthrax lethal factor (Bacillus anthracis, UniProt P15917)
# Sequence (P15917 34-809 limits assumed): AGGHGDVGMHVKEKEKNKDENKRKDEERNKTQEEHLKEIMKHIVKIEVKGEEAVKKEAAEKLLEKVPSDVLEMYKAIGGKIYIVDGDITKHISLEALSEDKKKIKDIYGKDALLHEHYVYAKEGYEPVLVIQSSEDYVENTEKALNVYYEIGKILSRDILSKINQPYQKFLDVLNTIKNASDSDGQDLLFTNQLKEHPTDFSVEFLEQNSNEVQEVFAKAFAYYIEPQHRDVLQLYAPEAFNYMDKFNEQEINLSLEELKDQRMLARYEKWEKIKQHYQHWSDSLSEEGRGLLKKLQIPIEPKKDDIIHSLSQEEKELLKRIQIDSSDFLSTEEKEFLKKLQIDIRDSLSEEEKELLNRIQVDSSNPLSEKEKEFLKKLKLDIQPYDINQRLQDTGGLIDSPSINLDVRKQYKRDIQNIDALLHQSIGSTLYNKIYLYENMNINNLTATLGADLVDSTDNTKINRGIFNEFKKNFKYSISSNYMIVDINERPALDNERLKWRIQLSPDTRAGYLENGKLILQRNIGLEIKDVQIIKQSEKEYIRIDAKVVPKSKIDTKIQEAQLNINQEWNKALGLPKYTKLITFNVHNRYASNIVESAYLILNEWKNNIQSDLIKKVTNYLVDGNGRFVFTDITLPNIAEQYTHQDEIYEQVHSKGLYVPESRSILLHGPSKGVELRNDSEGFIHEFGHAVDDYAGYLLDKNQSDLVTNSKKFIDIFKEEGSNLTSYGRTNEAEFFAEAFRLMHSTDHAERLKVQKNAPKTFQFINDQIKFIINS
# Type: biochemical
assayReadout: inhibition of the protease activity of anthrax lethal factor

{"compound": "C(=C\\c1cc2cc(C3=NCCN3)ccc2o1)/c1cc2cc(C3=NCCN3)ccc2[nH]1 [NSC 290108]", "reading": "inhibit"}
{"compound": "c1cc2cc(-c3ccc(-c4cc5ccc(C6=NCCN6)cc5[nH]4)cc3)[nH]c2cc1C1=NCCN1 [NSC 317881]", "reading": "inhibit"}
{"compound": "N=C(N)c1ccc(/C=C/c2cc3ccc(C(=N)N)cc3[nH]2)cc1 [NSC 317886]", "reading": "inhibit"}

---

# System: S. aureus
# methodSummary: microbe, parasite or virus in culture
# Type: cell-based
# assayConditions: Staphylococcus aureus
assayReadout: MIC (µg/mL)
Numeric answer only, unit µg/mL assumed.

{"recordSmiles": "c1cc2cc(-c3ccc4cc(-c5ccc6oc(C7=NCCN7)cc6c5)[nH]c4c3)[nH]c2cc1C1=NCCN1", "u": "µg/mL", "MIC": 0.696}

QUERY: Look up and report measured MIC for this entry: "c1cc2cc(-c3ccc(-c4cc5ccc(C6=NCCN6)cc5[nH]4)cc3)[nH]c2cc1C1=NCCN1"
RESULT: 0.323

QUERY: Look up and report measured MIC for this entry: "c1cc2cc(-c3ccc4cc(C5=NCCN5)[nH]c4c3)[nH]c2cc1C1=NCCN1"
RESULT: 1.1

QUERY: Look up and report measured MIC for this entry: "C(=C\c1cc2ccc(C3=NCCN3)cc2[nH]1)/c1cc2ccc(C3=NCCN3)cc2[nH]1"
RESULT: 1.17

---

# System: B. anthracis GFP sterne vegetative cells
# methodSummary: microbe, parasite or virus in culture
# Assay type: cell-based
# assayConditions: Bacillus anthracis, read-out: MIC B. anthracis vegetative cells
The reader will find reported MIC values listed item by item below.
Numeric answer only, unit µg/mL assumed.

{"recordSmiles": "c1cc2cc(-c3ccc4cc(-c5ccc6oc(C7=NCCN7)cc6c5)[nH]c4c3)[nH]c2cc1C1=NCCN1", "MIC [µg/mL]": 0.696}
{"recordSmiles": "N=C(N)c1ccc(-c2[nH]c3cc(C(=N)N)ccc3c2-c2ccccc2)cc1", "MIC [µg/mL]": 17}

QUERY: Look up and report measured MIC for this entry: "C(=C\c1cc2ccc(C3=NCCN3)cc2o1)/c1cc2ccc(C3=NCCN3)cc2o1"
RESULT: 18.8

QUERY: Look up and report measured MIC for this entry: "N=C(N)c1ccc2oc(CCc3cc4ccc(C(=N)N)cc4[nH]3)cc2c1"
RESULT: 8.36

---

# Test system: B. pumilus
# methodSummary: microbe, parasite or virus in culture
# Format: cell-based
# assayConditions: Bacillus pumilus
assayReadout: MIC (mg/L)
Numeric answer only, unit mg/L assumed.

Below, each entry is followed by its recorded MIC result.
{"recordSmiles": "c1cc2cc(-c3ccc(-c4cc5ccc(C6=NCCN6)cc5[nH]4)cc3)[nH]c2cc1C1=NCCN1", "MIC / mg/L": 0.021}
{"recordSmiles": "c1cc2cc(-c3ccc4cc(C5=NCCN5)[nH]c4c3)[nH]c2cc1C1=NCCN1", "MIC / mg/L": 0.138}
{"recordSmiles": "C(=C\\c1cc2ccc(C3=NCCN3)cc2[nH]1)/c1cc2ccc(C3=NCCN3)cc2[nH]1", "MIC / mg/L": 0.146}

In the following, a different molecule is considered.
QUERY: Look up and report measured MIC for this entry: "c1cc2cc(-c3ccc4cc(-c5ccc6oc(C7=NCCN7)cc6c5)[nH]c4c3)[nH]c2cc1C1=NCCN1"
RESULT: 0.348

---

# System: B. anthracis GFP sterne vegetative cells
# methodSummary: microbe, parasite or virus in culture
# Type: cell-based
# assayConditions: Bacillus anthracis, read-out: MIC B. anthracis vegetative cells
assayReadout: MIC (µg/mL)
Numeric answer only, unit µg/mL assumed.

{"recordSmiles": "N=C(N)c1ccc2cc(/C=C/c3cc4ccc(C(=N)N)cc4o3)oc2c1", "u": "µg/mL", "reading": 16.7}
{"recordSmiles": "N=C(N)c1ccc2oc(/C=C/C=C/C=C/c3cc4cc(C(=N)N)ccc4o3)cc2c1", "u": "µg/mL", "reading": 9.38}
{"recordSmiles": "Cc1cc(N)c2cc(NC(=O)Nc3ccc4nc(C)cc(N)c4c3)ccc2n1", "u": "µg/mL", "reading": 17.8}

QUERY: With B. anthracis GFP sterne vegetative cells as the test system, provide measured MIC for this compound: "C(=C\c1cc2ccc(C3=NCCN3)cc2o1)/c1cc2ccc(C3=NCCN3)cc2[nH]1"
RESULT: 18.7

---

# Tested on: B. subtilis
# methodSummary: microbe, parasite or virus in culture
# Assay type: cell-based
# assayConditions: Bacillus subtilis
The reader will find reported MIC values listed item by item below.
Param answer (str): number followed by unit.

Below, each entry is followed by its recorded MIC result.
{"recordSmiles": "c1cc2cc(-c3ccc(-c4cc5ccc(C6=NCCN6)cc5[nH]4)cc3)[nH]c2cc1C1=NCCN1", "tgt": "B. subtilis", "MIC": "0.162 µg/mL"}
{"recordSmiles": "C(=C\\c1cc2ccc(C3=NCCN3)cc2[nH]1)/c1cc2ccc(C3=NCCN3)cc2[nH]1", "tgt": "B. subtilis", "MIC": "0.292 µg/mL"}
{"recordSmiles": "c1cc2cc(-c3ccc4cc(C5=NCCN5)[nH]c4c3)[nH]c2cc1C1=NCCN1", "tgt": "B. subtilis", "MIC": "0.551 µg/mL"}

In the following, a different molecule is considered.
QUERY: Look up and report measured MIC for this entry: "c1cc2cc(-c3ccc4cc(-c5ccc6oc(C7=NCCN7)cc6c5)[nH]c4c3)[nH]c2cc1C1=NCCN1"
RESULT: 0.348 µg/mL

---

# System: B. anthracis GFP sterne vegetative cells
# methodSummary: microbe, parasite or virus in culture
# Format: cell-based
# assayConditions: Bacillus anthracis, read-out: MIC B. anthracis vegetative cells
The reader will find reported MIC values listed item by item below.
Numeric answer only, unit µg/mL assumed.

Below, each entry is followed by its recorded MIC result.
{"recordSmiles": "c1cc2cc(-c3ccc4cc(C5=NCCN5)[nH]c4c3)[nH]c2cc1C1=NCCN1", "MIC / µg/mL": 1.1}
{"recordSmiles": "C(/C=C/c1cc2cc(C3=NCCN3)ccc2o1)=C\\c1cc2cc(C3=NCCN3)ccc2o1", "MIC / µg/mL": 19.8}
{"recordSmiles": "C(=C\\c1cc2ccc(C3=NCCN3)cc2[nH]1)/c1cc2ccc(C3=NCCN3)cc2[nH]1", "MIC / µg/mL": 1.17}

QUERY: Look up and report measured MIC for this entry: "c1cc(-c2nc3ccc(-c4nc5ccc(C6=NCCN6)cc5[nH]4)cc3[nH]2)ccc1C1=NCCN1"
RESULT: 22.3

QUERY: Look up and report measured MIC for this entry: "N=C(N)c1ccc(/C=C/c2cc3ccc(C(=N)N)cc3[nH]2)cc1"
RESULT: 15

QUERY: Look up and report measured MIC for this entry: "C(=C\c1cc2ccc(C3=NCCN3)cc2[nH]1)/c1ccc2cc(C3=NCCN3)[nH]c2c1"
RESULT: 18.7

Recorded values, source patent US8691859B2.
